System: Rattus norvegicus
Test Description: Clearance in Sprague Dawley (crl:CD(SD)) rat at 1 mg/kg, iv by LCMS/MS method
Type: ADME, organism-based
Conditions Used: in vivo
Quick list: clearance per entry.
Readout: clearance

1. COc1nn(C)c2ncnc(NS(=O)(=O)c3cccc(Cl)c3Cl)c12 | 0.12 L/h/kg
2. COc1cccc2c1c(NS(=O)(=O)c1cccc(Cl)c1Cl)nn2C | 1.02 L/h/kg

###

Test Description: Half life in Sprague Dawley (crl:CD(SD)) rat at 1 mg/kg, iv by LCMS/MS method
Assay type: ADME, organism-based
Conditions Used: in vivo
Quick list: half-life per entry.
Readout: half-life

1) COc1cccc2c1c(NS(=O)(=O)c1cccc(Cl)c1Cl)nn2C | 1.2 h
2) COc1nn(C)c2ncnc(NS(=O)(=O)c3cccc(Cl)c3Cl)c12 | 1.9 h

###

Quick list: bioavailability per entry.
Test Description: Oral bioavailability in Sprague Dawley (crl:CD(SD)) rat at 1 mg/kg by LCMS/MS method
Assay type: ADME, organism-based
Conditions Used: in vivo
Readout: bioavailability (%)

1) COc1cccc2c1c(NS(=O)(=O)c1cccc(Cl)c1Cl)nn2C | 24
2) COc1nn(C)c2ncnc(NS(=O)(=O)c3cccc(Cl)c3Cl)c12 | 62

###

Test Description: Volume of distribution at steady state in Sprague Dawley (crl:CD(SD)) rat at 1 mg/kg, iv by LCMS/MS method
Assay type: ADME, organism-based
Conditions Used: in vivo, read-out: Vdss
Readout: Vd (L/kg)

1) COc1nn(C)c2ncnc(NS(=O)(=O)c3cccc(Cl)c3Cl)c12 | 0.3
2) COc1cccc2c1c(NS(=O)(=O)c1cccc(Cl)c1Cl)nn2C | 0.5

###

Quick list: chromatographic logD per entry.
Test Description: Lipophilicity, log D of the compound by chromatographic analysis
Assay type: physicochemical
Readout: chromatographic logD

1. CNc1nc(NS(=O)(=O)c2cccc(Cl)c2Cl)c2c(OC)nn(C)c2n1 | 3.2
2. Cn1ncc2c(NS(=O)(=O)c3cccc(Cl)c3Cl)ccnc21 | 1.7
3. COc1n[nH]c2ncnc(NS(=O)(=O)c3cccc(Cl)c3Cl)c12 | 1.8
4. COc1ccc(COc2nc(Br)cnc2NS(=O)(=O)c2ccc(C)cc2)cc1OCCN(C)C | 3.1
5. COc1ccc2c(cnn2C)c1NS(=O)(=O)c1cccc(Cl)c1Cl | 5
6. COc1nn(CC(=O)O)c2ncnc(NS(=O)(=O)c3cccc(Cl)c3Cl)c12 | 0.8
7. COCCNc1nc(NS(=O)(=O)c2cccc(Cl)c2Cl)c2c(OC)nn(C)c2n1 | 3.3
8. COc1nn(C)c2ncnc(NS(=O)(=O)c3ccc(Cl)s3)c12 | 1.6
9. CCn1[nH]c2ncnc(NS(=O)(=O)c3cccc(Cl)c3Cl)c2c1=O | 1.2
10. COc1nn(C)c2nc(N(C)C)nc(NS(=O)(=O)c3cccc(Cl)c3Cl)c12 | 4

###

Test Description: Half life in Beagle dog at 1 mg/kg by LCMS/MS method
Format: ADME, organism-based, Canis lupus familiaris
Conditions Used: in vivo
Readout: half-life (min)

1) COc1nn(C)c2ncnc(NS(=O)(=O)c3cccc(Cl)c3Cl)c12 | 36

###

Test Description: Kinetic solubility of the compound by chemiluminescent nitrogen detection assay
Type: physicochemical
Conditions Used: read-out: Kinetic_solubility
Readout: solubility kinetic (µM)

1) COc1nn(C(C)C)c2ncnc(NS(=O)(=O)c3cccc(Cl)c3Cl)c12 | 404
2) Cn1nc(NS(=O)(=O)c2cccc(Cl)c2Cl)c2ccccc21 | 124
3) COc1cccc2c1c(NS(=O)(=O)c1cccc(Cl)c1Cl)nn2C | 288
4) Cn1ncc2c(NS(=O)(=O)c3cccc(Cl)c3Cl)cccc21 | 170
5) COc1n[nH]c2ncnc(NS(=O)(=O)c3cccc(Cl)c3Cl)c12 | 402

###

Test Description: Volume of distribution at steady state in Beagle dog at 1 mg/kg by LCMS/MS method
Assay type: ADME, organism-based, Canis lupus familiaris
Conditions Used: in vivo, read-out: Vdss
Readout: Vd (L/kg)

1. COc1nn(C)c2ncnc(NS(=O)(=O)c3cccc(Cl)c3Cl)c12 | 0.3

###

Quick list: solubility kinetic per entry.
Test Description: Kinetic solubility of the compound by chemiluminescent nitrogen detection assay
Assay type: physicochemical
Conditions Used: read-out: Kinetic_solubility
Readout: solubility kinetic (µM)

1. Cn1ncc2c(NS(=O)(=O)c3cccc(Cl)c3Cl)ncnc21 | 476
2. COc1nn(CCN(C)C)c2ncnc(NS(=O)(=O)c3cccc(Cl)c3Cl)c12 | 358
3. COc1nn(C2COC2)c2ncnc(NS(=O)(=O)c3cccc(Cl)c3Cl)c12 | 142
4. COc1nc(NS(=O)(=O)c2cccc(Cl)c2Cl)c2c(OC)nn(C)c2n1 | 148
5. CNc1nc(NS(=O)(=O)c2cccc(Cl)c2Cl)c2c(OC)nn(C)c2n1 | 376
6. COc1nn(C)c2cccc(NS(=O)(=O)c3cccc(Cl)c3Cl)c12 | 80
7. COc1ccc(COc2nc(Br)cnc2NS(=O)(=O)c2ccc(C)cc2)cc1OCCN(C)C | 309
8. CCNc1nc(NS(=O)(=O)c2cccc(Cl)c2Cl)c2c(OC)nn(C)c2n1 | 219
9. COc1ccc2c(cnn2C)c1NS(=O)(=O)c1cccc(Cl)c1Cl | 175

###

Target Under Test: C-C chemokine receptor type 4 (Homo sapiens, UniProt P51679)
Sequence (P51679 whole entry): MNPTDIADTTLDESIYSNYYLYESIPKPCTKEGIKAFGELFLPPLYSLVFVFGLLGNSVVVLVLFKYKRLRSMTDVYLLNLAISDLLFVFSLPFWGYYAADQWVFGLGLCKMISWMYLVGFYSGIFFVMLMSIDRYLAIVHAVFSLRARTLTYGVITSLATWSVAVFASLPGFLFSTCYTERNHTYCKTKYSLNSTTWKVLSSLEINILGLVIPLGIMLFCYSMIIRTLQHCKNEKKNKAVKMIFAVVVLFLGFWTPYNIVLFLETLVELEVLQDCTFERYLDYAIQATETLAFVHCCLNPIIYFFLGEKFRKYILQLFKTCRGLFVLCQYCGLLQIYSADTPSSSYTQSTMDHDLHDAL
Test Description: Antagonist activity at human recombinant CCR4 receptor expressed in CHO cell membranes by [35S]GTPgammaS binding assay
So basically, if IC50 comes in under 800 nM it's Y, and if it's 800 nM or more it's N.

1) COc1nn(CC(=O)O)c2ncnc(NS(=O)(=O)c3cccc(Cl)c3Cl)c12 | Y
2) COc1nn(CCN(C)C)c2ncnc(NS(=O)(=O)c3cccc(Cl)c3Cl)c12 | N
3) COc1nn(C)c2nc(NCCN(C)C)nc(NS(=O)(=O)c3cccc(Cl)c3Cl)c12 | N
4) Cn1ncc2c(NS(=O)(=O)c3cccc(Cl)c3Cl)ncnc21 | N
5) COc1nn(C)c2nc(N)nc(NS(=O)(=O)c3cccc(Cl)c3Cl)c12 | Y
6) COc1nn(C)c2nc(NC3COC3)nc(NS(=O)(=O)c3cccc(Cl)c3Cl)c12 | N
7) COc1nn(C)c2nc(NC(C)C)nc(NS(=O)(=O)c3cccc(Cl)c3Cl)c12 | N
8) CCNc1nc(NS(=O)(=O)c2cccc(Cl)c2Cl)c2c(OC)nn(C)c2n1 | Y
9) COc1nn(C)c2ncnc(NS(=O)(=O)c3cccc(Cl)c3Cl)c12 | Y
10) Cn1ncc2c(NS(=O)(=O)c3cccc(Cl)c3Cl)cccc21 | N
11) COc1n[nH]c2ncnc(NS(=O)(=O)c3cccc(Cl)c3Cl)c12 | Y
12) COc1nn(C2COC2)c2ncnc(NS(=O)(=O)c3cccc(Cl)c3Cl)c12 | Y
13) Cn1nc(NS(=O)(=O)c2cccc(Cl)c2Cl)c2ccccc21 | N
14) COc1nn(C)c2nc(N(C)C)nc(NS(=O)(=O)c3cccc(Cl)c3Cl)c12 | Y
15) COCCn1nc(OC)c2c(NS(=O)(=O)c3cccc(Cl)c3Cl)ncnc21 | Y
16) COc1nn(C)c2nc(C)nc(NS(=O)(=O)c3cccc(Cl)c3Cl)c12 | Y
17) COc1nn(C(C)C)c2ncnc(NS(=O)(=O)c3cccc(Cl)c3Cl)c12 | Y
18) Cn1ncc2c(NS(=O)(=O)c3cccc(Cl)c3Cl)ccnc21 | N
19) COCCNc1nc(NS(=O)(=O)c2cccc(Cl)c2Cl)c2c(OC)nn(C)c2n1 | N
20) COc1ccc2c(cnn2C)c1NS(=O)(=O)c1cccc(Cl)c1Cl | N
21) O=S(=O)(Nc1ncnc2[nH]nc(O)c12)c1cccc(Cl)c1Cl | N
22) CNc1nc(NS(=O)(=O)c2cccc(Cl)c2Cl)c2c(OC)nn(C)c2n1 | Y
23) CNC(=O)Cn1nc(OC)c2c(NS(=O)(=O)c3cccc(Cl)c3Cl)ncnc21 | Y
24) CCn1[nH]c2ncnc(NS(=O)(=O)c3cccc(Cl)c3Cl)c2c1=O | N
25) COc1nn(C)c2ncnc(NS(=O)(=O)c3ccc(Cl)s3)c12 | Y
26) COc1nn(CC(N)=O)c2ncnc(NS(=O)(=O)c3cccc(Cl)c3Cl)c12 | Y
